Record set of pIC50 for target or system Polycomb protein EED (Homo sapiens, UniProt O75530).
A value of pIC50 is the negative decimal logarithm of a concentration given in moles per litre.

INSERT INTO measurements (structure_string, test_readout, recorded_measurement) VALUES
  ('CS(=O)(=O)c1ccc(-c2cnc(NCc3ccco3)n3cnnc23)cc1', 'pIC50', 7.75),
  ('CS(=O)(=O)c1ncn2c(NCc3c(F)ccc4c3CCO4)ncc(-c3ccc(F)cc3)c12', 'pIC50', 9.40),
  ('Cc1nc(C(F)(F)F)ccc1-c1cnc(NCc2c(F)ccc3c2CCO3)n2cnc(S(C)(=O)=O)c12', 'pIC50', 9.40);

Consider now this further compound.
Exercise: Query pIC50 on Polycomb protein EED (Homo sapiens, UniProt O75530) for "CS(=O)(=O)c1ncn2c(NCc3c(F)ccc4c3CCO4)ncc(-c3ccc(C4CC4)nc3)c12"
Sequence (O75530 whole entry): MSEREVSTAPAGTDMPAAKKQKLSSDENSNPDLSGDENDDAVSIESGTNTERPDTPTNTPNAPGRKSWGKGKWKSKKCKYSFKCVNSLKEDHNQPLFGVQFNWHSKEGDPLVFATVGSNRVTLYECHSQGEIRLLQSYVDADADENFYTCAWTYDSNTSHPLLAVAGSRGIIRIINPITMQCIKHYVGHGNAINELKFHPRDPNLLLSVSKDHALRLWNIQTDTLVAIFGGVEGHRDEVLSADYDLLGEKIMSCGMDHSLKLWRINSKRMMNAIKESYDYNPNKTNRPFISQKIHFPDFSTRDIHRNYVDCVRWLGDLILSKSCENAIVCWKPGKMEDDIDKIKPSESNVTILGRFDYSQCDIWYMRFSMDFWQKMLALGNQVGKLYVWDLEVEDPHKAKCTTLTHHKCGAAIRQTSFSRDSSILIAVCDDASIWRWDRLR
Solution: 9.70

Cited source for all entries: ChEMBL document CHEMBL4610126
